meta.source: patent US5618726A

Tested on: ligninase
assay details: Oxidation of dyes by P. chrysosporium ligninase (crude preparation)
Type: biochemical, Phanerochaete chrysosporium
test settings: crude enzyme, conditions specific for ligninase
measured quantity: Oxidation rate of azo dyes, P. chrysosporium Ligninase (μmoles per minute per ml)
Numbers only here, please. The scale is μmoles per minute per ml.

Q) # input compound: Cc1cc(N=Nc2ccc(S(=O)(=O)O)cc2)ccc1O ; wanted: its Oxidation rate of azo dyes, P. chrysosporium Ligninase
A) 0.00

Q) # input compound: Cc1cc(O)c(N=Nc2ccc(S(=O)(=O)O)cc2)cc1C ; wanted: its Oxidation rate of azo dyes, P. chrysosporium Ligninase
A) 1.35

Q) # input compound: Cc1ccc(O)c(N=Nc2ccc(S(=O)(=O)O)cc2)c1 ; wanted: its Oxidation rate of azo dyes, P. chrysosporium Ligninase
A) 0.49

Q) # input compound: O=S(=O)(O)c1ccc(N=Nc2ccc(O)cc2)cc1 ; wanted: its Oxidation rate of azo dyes, P. chrysosporium Ligninase
A) 0.45

Q) # input compound: CN(C)c1ccc(N=Nc2ccc(S(=O)(=O)O)cc2)cc1 ; wanted: its Oxidation rate of azo dyes, P. chrysosporium Ligninase
A) 0.32

Q) # input compound: O=S(=O)(O)c1ccc2c(N=Nc3ccccc3)c(O)ccc2c1 ; wanted: its Oxidation rate of azo dyes, P. chrysosporium Ligninase
A) 2.06

Q) # input compound: Nc1ccc(N=Nc2ccc(S(=O)(=O)O)cc2)cc1 ; wanted: its Oxidation rate of azo dyes, P. chrysosporium Ligninase
A) 1.58

Q) # input compound: COc1cc(C)cc(N=Nc2ccc(S(=O)(=O)O)cc2)c1O ; wanted: its Oxidation rate of azo dyes, P. chrysosporium Ligninase
A) 1.28
